Target: cdk2/cyclinA (Homo sapiens, UniProt P24941)
Assay: Cyclin-Dependent Kinase Assay cdk2/cyclinA
Assay type: biochemical
Method: Cyclin-Dependent Kinase Assays (cdk2/cyclinE, cdk2/cyclinA, cdc2/cyclinB) All components except the ATP were added to the wells, and the plate was placed on a plate mixer for 2 minutes. The reaction was begun by addition of [^32P]ATP, and the plate was incubated at 25°C for 15 minutes. The reaction was terminated by addition of 0.1 mL of 20% TCA. […] The wells were then washed five times with 0.2 mL of 10% TCA and ^32P incorporation determined with a beta plate counter (Wallac Inc., Gaithersburg, MD).
metric.name: pIC50
In textbook form, pIC50 equals minus log to base ten of the concentration in mol/L.

Q: So what's the measured pIC50 for this one? O=C1NCc2cnc(Nc3ccc(N4CCCC(O)C4)cc3)nc2N1C1CCCC1 (stereo not drawn) [Example 16]
Ans: 6.19

Q: Same read-out for CC(C)N1C(=O)NCc2cnc(Nc3ccc(N4CCC(O)CC4)cc3)nc21 [Example 23] ?
Ans: 5.36

Q: Same read-out for O=C1NCc2cnc(Nc3ccc(N4CCC(CCCO)CC4)cc3)nc2N1C1CCCC1 [Example 20] ?
Ans: 5.57

Q: Same read-out for O=c1ncc2cnc(Nc3ccc(-n4cccn4)cc3)nc2n1C1CCCC1 [Example 36] ?
Ans: 5.88

Q: Same read-out for CC(C)n1c(=O)ncc2cnc(Nc3ccc(N4CCN(C)CC4)cc3)nc21 [Example 40] ?
Ans: 5.35

Q: Same read-out for CC(C)n1c(=O)ncc2cnc(Nc3ccc(-n4cccn4)cc3)nc21 [Example 42] ?
Ans: 5.24

Q: Same read-out for O=c1ncc2cnc(Nc3ccc(N4CCC(CCN5CCOCC5)CC4)cc3)nc2n1C1CCCC1 [Example 39] ?
Ans: 5.84

Q: Same read-out for COc1ccc(Nc2ncc3cnc(=O)n(C4CCCC4)c3n2)cc1 [Example 37] ?
Ans: 6.40

Q: Same read-out for CCN(CC)CCOc1ccc(Nc2ncc3cnc(=O)n(C4CCCC4)c3n2)cc1C [Example 34] ?
Ans: 5.49

Q: Same read-out for CC(C)N1C(=O)NCc2cnc(Nc3ccc(N4CCC(N(C)C)CC4)cc3)nc21 [Example 24, trifluoroacetic acid] ?
Ans: 4.91

====

target: cdk2/cyclinE (Homo sapiens, UniProt P24941); assay: Cyclin-Dependent Kinase Assay cdk2/cyclinE; format: biochemical
metric.name: pIC50
In textbook form, pIC50 equals minus log to base ten of the concentration in mol/L.

Q: So what's the measured pIC50 for this one? CCN(CC)CCOc1ccc(Nc2ncc3cnc(=O)n(C4CCCC4)c3n2)cc1C [Example 34]
Ans: 5.50

Q: Same read-out for CC(C)N1C(=O)NCc2cnc(Nc3ccc(N4CCC(O)CC4)cc3)nc21 [Example 23] ?
Ans: 4.77

Q: Same read-out for CC(C)N1C(=O)NCc2cnc(Nc3ccc(-n4cccn4)cc3)nc21 [Example 25, trifluoroacetic acid] ?
Ans: 5.00

Q: Same read-out for O=c1ncc2cnc(Nc3ccc(N4CCC(CCN5CCOCC5)CC4)cc3)nc2n1C1CCCC1 [Example 39] ?
Ans: 5.73

Q: Same read-out for O=c1ncc2cnc(Nc3ccc(N4CCCC(O)C4)cc3)nc2n1C1CCCC1 (centres unmarked) [Example 35] ?
Ans: 5.98

Q: Same read-out for CC1CN(c2ccc(Nc3ncc4c(n3)N(C3CCCC3)C(=O)NC4)cc2)CC(C)N1 (centres unmarked) [Example 18] ?
Ans: 5.70

Q: Same read-out for CC(C)n1c(=O)ncc2cnc(Nc3ccc(N4CCN(C)CC4)cc3)nc21 [Example 40] ?
Ans: 4.78

Q: Same read-out for CC(C)N1C(=O)NCc2cnc(Nc3ccc(N4CCC(N(C)C)CC4)cc3)nc21 [Example 24, trifluoroacetic acid] ?
Ans: 4.47

Q: Same read-out for O=C1NCc2cnc(Nc3ccc(N4CCCC(O)C4)cc3)nc2N1C1CCCC1 (centres unmarked) [Example 16] ?
Ans: 5.82

Q: Same read-out for COc1ccc(Nc2ncc3cnc(=O)n(C4CCCC4)c3n2)cc1 [Example 37] ?
Ans: 6.05

Q: Same read-out for O=c1ncc2cnc(Nc3ccc(-n4cccn4)cc3)nc2n1C1CCCC1 [Example 36] ?
Ans: 5.61

Q: Same read-out for O=C1NCc2cnc(Nc3ccc(N4CCC(CCCO)CC4)cc3)nc2N1C1CCCC1 [Example 20] ?
Ans: 5.27

====

Field: IC50. Provide a value for each of the compounds that follow.
molecular target: cdk4/D (Homo sapiens, UniProt P11802); assay: Cyclin-Dependent Kinase 4 (cdk4) Assay; assay type: biochemical; details: 25 µM ATP, retinoblastoma substrate; read-out: IC50 (µM) cdk4/D
Sequence (P11802 whole entry): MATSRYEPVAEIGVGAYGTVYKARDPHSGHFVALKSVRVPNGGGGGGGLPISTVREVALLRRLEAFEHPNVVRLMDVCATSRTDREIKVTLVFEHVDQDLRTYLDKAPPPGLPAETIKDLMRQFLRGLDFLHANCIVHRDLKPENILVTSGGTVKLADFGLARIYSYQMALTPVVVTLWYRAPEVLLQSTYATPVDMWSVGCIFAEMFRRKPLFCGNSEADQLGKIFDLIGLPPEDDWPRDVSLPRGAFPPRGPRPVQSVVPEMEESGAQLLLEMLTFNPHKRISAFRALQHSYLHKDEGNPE
Sequence (P24385 whole entry, further chain): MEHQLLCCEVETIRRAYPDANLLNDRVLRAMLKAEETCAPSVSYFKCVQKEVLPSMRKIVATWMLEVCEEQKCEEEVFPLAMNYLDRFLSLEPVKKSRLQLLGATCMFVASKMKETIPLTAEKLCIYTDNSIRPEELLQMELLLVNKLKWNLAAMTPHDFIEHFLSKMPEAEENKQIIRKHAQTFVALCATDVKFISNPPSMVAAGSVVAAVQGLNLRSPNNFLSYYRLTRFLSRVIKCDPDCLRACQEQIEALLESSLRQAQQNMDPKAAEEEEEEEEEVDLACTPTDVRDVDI
Just the number please, in µM, no unit attached.

Q: So what's the measured IC50 for this one? O=C1NCc2cnc(Nc3ccc(N4CCCCC4)cc3)nc2N1C1CCCC1
Ans: 1.55

Q: Same read-out for O=c1ncc2cnc(Nc3ccc(N4CCC(O)CC4)cc3)nc2n1C1CCCC1 ?
Ans: 0.038

Q: Same read-out for CN1CCN(c2ccc(Nc3ncc4cnc(=O)n(C5CCCC5)c4n3)cc2)CC1 ?
Ans: 0.05

Q: Same read-out for O=C1NCc2cnc(Nc3ccc(N4CCC(O)CC4)cc3)nc2N1C1CCCC1 ?
Ans: 0.7

Q: Same read-out for O=c1ncc2cnc(Nc3ccc(N4CCCCC4)cc3)nc2n1C1CCCC1 ?
Ans: 0.15

Q: Same read-out for CN1CCN(c2ccc(Nc3ncc4c(n3)N(C3CCCC3)C(=O)NC4)cc2)CC1 ?
Ans: 0.039

====

target: PDGF-β receptor tyrosine kinase (Mus musculus, UniProt P05622); construct: amplify a fragment of DNA that codes for the intracellular tyrosine kinase domain; made in house; host or cells: SF9 insect cells (baculovirus); crude cell lysate used; assay: PDGF Receptor Tyrosine Kinase Assay; assay type: biochemical; conditions: glutamate-tyrosine co-polymer substrate, 50 µM ATP
Sequence (P05622 599-961 limits assumed): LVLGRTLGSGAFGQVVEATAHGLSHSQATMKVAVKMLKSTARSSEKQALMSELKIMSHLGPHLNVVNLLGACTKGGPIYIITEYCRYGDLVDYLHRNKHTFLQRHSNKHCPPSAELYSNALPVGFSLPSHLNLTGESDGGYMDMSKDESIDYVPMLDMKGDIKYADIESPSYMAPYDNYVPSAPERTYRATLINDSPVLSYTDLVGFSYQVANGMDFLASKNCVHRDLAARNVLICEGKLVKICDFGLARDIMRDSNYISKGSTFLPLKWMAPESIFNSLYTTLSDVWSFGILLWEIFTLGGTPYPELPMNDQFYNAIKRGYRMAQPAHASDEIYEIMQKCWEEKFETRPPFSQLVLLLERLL
Field: IC50. Provide a value for each of the compounds that follow.

Q: Form field: IC50 recorded for O=c1ncc2cnc(Nc3ccc(-n4cccn4)cc3)nc2n1C1CCCC1 with PDGF-β receptor tyrosine kinase (Mus musculus, UniProt P05622) (enter value)
Ans: > 50 µM

Q: Same read-out for O=C1NCc2cnc(Nc3ccc(N4CCCC(O)C4)cc3)nc2N1C1CCCC1 (centres unmarked) ?
Ans: 0.83 µM

Q: Same read-out for CC(C)n1c(=O)ncc2cnc(Nc3ccc(N4CCC(N(C)C)CC4)cc3)nc21 ?
Ans: > 50 µM

Q: Same read-out for O=c1ncc2cnc(Nc3ccc(N4CCC(CCN5CCOCC5)CC4)cc3)nc2n1C1CCCC1 ?
Ans: 3.76 µM

Q: Same read-out for CN1CCN(c2ccc(Nc3ncc4cnc(=O)n(C5CCCC5)c4n3)cc2)CC1 ?
Ans: 1.63 µM

Q: Same read-out for CCN(CC)CCCCNc1ncc2c(n1)N(CC)C(=O)N(c1cc(OC)cc(OC)c1)C2 ?
Ans: 5 µM

Q: Same read-out for O=c1ncc2cnc(Nc3ccc(N4CCCC(O)C4)cc3)nc2n1C1CCCC1 (centres unmarked) ?
Ans: 2.8 µM

Q: Same read-out for C=CCn1c(=O)c2cnc(Nc3ccc(N4CCN(C)CC4)cc3)nc2n(C(C)C)c1=O ?
Ans: > 50 µM

====

target: c-Src (Homo sapiens, UniProt P12931); construct: made in house; host or cells: baculovirus infected insect cells; experiment: c-Src protein kinase assay; type: biochemical; conditions: poly GluTyr substrate, 5 µM ATP
Sequence (P12931 whole entry): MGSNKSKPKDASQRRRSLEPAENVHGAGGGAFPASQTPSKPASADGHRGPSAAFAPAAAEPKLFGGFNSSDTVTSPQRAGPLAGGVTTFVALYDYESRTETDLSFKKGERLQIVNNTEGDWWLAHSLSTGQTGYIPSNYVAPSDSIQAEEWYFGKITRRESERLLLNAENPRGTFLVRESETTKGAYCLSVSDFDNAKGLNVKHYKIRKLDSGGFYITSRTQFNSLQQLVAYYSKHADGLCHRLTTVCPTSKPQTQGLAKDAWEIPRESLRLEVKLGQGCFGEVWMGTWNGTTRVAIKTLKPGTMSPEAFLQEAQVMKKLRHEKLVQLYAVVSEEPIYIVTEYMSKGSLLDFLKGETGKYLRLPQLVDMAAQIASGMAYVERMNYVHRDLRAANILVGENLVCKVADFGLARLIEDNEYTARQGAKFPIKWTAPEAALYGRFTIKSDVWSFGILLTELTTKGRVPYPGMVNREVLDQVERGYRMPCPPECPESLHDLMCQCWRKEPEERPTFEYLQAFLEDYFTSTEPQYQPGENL
metric.name: log10 of IC50 (log10 of the value in µM)
Log scale reminder: IC50 in µM, then log10 taken.

Q: So what's the measured log10 of IC50 for this one? CC(C)n1c(=O)ncc2cnc(Nc3ccc(N4CCC(N(C)C)CC4)cc3)nc21
Ans: 0.49

Q: Same read-out for O=c1ncc2cnc(Nc3ccc(N4CCCC(O)C4)cc3)nc2n1C1CCCC1 (centres unmarked) ?
Ans: 0.67

Q: Same read-out for CN1CCN(c2ccc(Nc3ncc4c(n3)N(C3CCCC3)C(=O)NC4)cc2)CC1 ?
Ans: -0.15

Q: Same read-out for CC(C)n1c(=O)ncc2cnc(Nc3ccc(N4CCN(C)CC4)cc3)nc21 ?
Ans: 0.63

Q: Same read-out for O=C1NCc2cnc(Nc3ccc(N4CCCCC4CO)cc3)nc2N1C1CCCC1 (centres unmarked) ?
Ans: 0.65

Q: Same read-out for CN1CCN(c2ccc(Nc3ncc4cnc(=O)n(C5CCCC5)c4n3)cc2)CC1 ?
Ans: 0.60

Q: Same read-out for CC(C)N1C(=O)NCc2cnc(Nc3ccc(N4CCN(C)CC4)cc3)nc21 ?
Ans: 0.18

Q: Same read-out for O=C1NCc2cnc(Nc3ccc(N4CCCC(O)C4)cc3)nc2N1C1CCCC1 (centres unmarked) ?
Ans: 0.61

Q: Same read-out for O=c1ncc2cnc(Nc3ccc(N4CCC(CCN5CCOCC5)CC4)cc3)nc2n1C1CCCC1 ?
Ans: 0.51

Q: Same read-out for CC1CN(c2ccc(Nc3ncc4c(n3)N(C3CCCC3)C(=O)NC4)cc2)CC(C)N1 (centres unmarked) ?
Ans: -0.40
